The measured values listed here are drawn from PubChem BioAssay (EPA / NIEHS).

Read-out: Vascular cell adhesion molecule 1 (VCAM1), VCAM1 (gene 7412)
Experiment: BSK_4H_VCAM1: BioMAP Diversity Plus: 4H Assay for Vascular cell adhesion molecule 1 (VCAM1) Biomarker Activity (AID 2283033);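 note: cell-surface VCAM-1 protein measured by ELISA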
Conditions: primary human endothelial cells (HUVEC); actives raise or lower the signal
The source made the active and inactive calls. Rule for the calls: active = hit-call score of the fitted dose curve at least 0.9, where 1 is the maximum; inactive = score below 0.9.
metric: outcome

Previously resolved entries follow.
>>> result("CCOC(=O)COc1cc(-n2ncc(C(F)(F)F)c(C)c2=O)c(F)cc1Cl")
"inactive"
>>> result("O=C(c1ccccc1)C1CCCCC1")
"inactive"
>>> result("CC1(C)C(C=C(Cl)Cl)C1C(=O)OCc1cccc(Oc2ccccc2)c1 (stereo unspecified)")
"inactive"
>>> result("c1ccc(Nc2ccccc2)cc1")
"inactive"

Per the record, CCCCOC(=O)C(C)Oc1ccc(Oc2ccc(C(F)(F)F)cn2)cc1 (stereo unspecified) has outcome of inactive

CN(C)C(=O)Nc1ccc(Cl)c(Cl)c1 has a reported outcome of inactive

Memo: COC(=O)c1ccc(I)cc1S(=O)(=O)NC(=O)Nc1nc(C)nc(OC)n1 , reported outcome: inactive

For record CSC(=O)c1cccc2nnsc12 the listed outcome is inactive

CCOC(=O)[C@H](C)Oc1ccc(Oc2nc3ccc(Cl)cc3o2)cc1 has a reported outcome of inactive

Entry C[C@]12CC[C@@H]3c4ccc(O)cc4C[C@@H](CCCCCCCCCS(=O)CCCC(F)(F)C(F)(F)F)[C@H]3[C@@H]1CC[C@@H]2O (stereo partly specified) — recorded outcome = inactive

// CCOC(=O)c1ccc(O)cc1 : outcome value = inactive
